- Tested system: human TLR7 (Homo sapiens)
- Construct: HA; host or cells: 293XL-hTLR7-HA (HEK293)
- Sequence (Q9NYK1 27-1049): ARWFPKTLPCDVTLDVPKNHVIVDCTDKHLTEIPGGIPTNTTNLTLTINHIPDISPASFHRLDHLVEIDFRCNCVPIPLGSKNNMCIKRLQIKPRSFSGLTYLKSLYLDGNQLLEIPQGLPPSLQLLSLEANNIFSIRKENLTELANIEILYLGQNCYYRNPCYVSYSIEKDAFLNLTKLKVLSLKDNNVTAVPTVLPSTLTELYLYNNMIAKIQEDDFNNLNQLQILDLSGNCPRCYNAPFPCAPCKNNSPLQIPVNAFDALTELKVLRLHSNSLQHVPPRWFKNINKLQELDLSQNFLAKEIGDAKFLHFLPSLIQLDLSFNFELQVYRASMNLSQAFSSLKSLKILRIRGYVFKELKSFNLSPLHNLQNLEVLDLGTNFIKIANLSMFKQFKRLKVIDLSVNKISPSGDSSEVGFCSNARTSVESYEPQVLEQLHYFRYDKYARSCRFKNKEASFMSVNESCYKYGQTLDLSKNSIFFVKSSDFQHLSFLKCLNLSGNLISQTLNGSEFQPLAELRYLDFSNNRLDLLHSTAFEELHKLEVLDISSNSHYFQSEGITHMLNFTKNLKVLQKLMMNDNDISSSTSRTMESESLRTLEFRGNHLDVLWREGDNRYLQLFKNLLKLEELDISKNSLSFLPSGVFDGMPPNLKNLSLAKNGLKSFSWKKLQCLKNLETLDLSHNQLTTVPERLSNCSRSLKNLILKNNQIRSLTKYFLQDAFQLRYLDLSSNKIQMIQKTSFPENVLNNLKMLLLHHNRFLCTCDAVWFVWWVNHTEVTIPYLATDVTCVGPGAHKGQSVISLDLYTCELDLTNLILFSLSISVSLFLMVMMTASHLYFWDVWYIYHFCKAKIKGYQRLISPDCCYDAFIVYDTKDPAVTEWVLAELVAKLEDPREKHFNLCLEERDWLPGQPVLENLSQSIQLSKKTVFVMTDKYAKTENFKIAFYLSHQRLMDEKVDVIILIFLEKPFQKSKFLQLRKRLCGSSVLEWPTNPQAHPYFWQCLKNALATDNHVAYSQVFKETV
- Measurement notes: HEK-TLR7 NF-κB-luciferase reporter, R848 stimulation
- Format: cell-based
- Condition set: ASO 100 nM; relative to R848 only, given as fraction
- Method: In such examples, inhibition of TLR7 activity can be identified by observation of an overall decreased TLR7 response of the cell population, or a lower proportion of cells having TLR7-positive activity as compared to positive control condition in which cells are treated with TLR7 agonist in the absence of the oligonucleotide (or in the presence of an appropriate control inhibitory agent). […] TLR7 activity can be determined by a luciferase assay, which measures activated NF-κB by luminescence. […]
Measured endpoint: TLR7 100 nM (averaged NF-κB-Luciferase level relative to R848 condition)

-- ask Returns the measured TLR7 100 nM (averaged NF-κB-Luciferase level relative to R848 condition) for the input sequence. Input: GGTCTTGGCTTCGTGG (antisense; LNA-modified, pattern not given here) [MB21D1-523 LNA V1]
-- reply 0.481

-- ask Same again, this time with AGGCCCTTCGCACTTC (antisense; LNA-modified, pattern not given here) [EGFR-1225 LNA V1]
-- reply 0.737

-- ask Same again, this time with CCATCCATGAGGTCCT (antisense; LNA-modified, pattern not given here) [CTNN2B-2545 LNA V1]
-- reply 0.992

-- ask Same again, this time with ACACTTCGTGGGGTCC (antisense; LNA-modified, pattern not given here) [HPRT LNA-665 V1]
-- reply 0.548

-- ask Same again, this time with CGCTTTTCTGTCTGGT (antisense; LNA-modified, pattern not given here) [CTNN2B-311 LNA KL]
-- reply 0.393

-- ask Same again, this time with AGTGTTGAGATACTCG (antisense; LNA-modified, pattern not given here) [EGFR-3652 LNA KL]
-- reply 0.559

-- ask Same again, this time with TGACAAAGATTCACTG (antisense; LNA-modified, pattern not given here) [HPRT LNA-1353 KL]
-- reply 1.040

-- ask Same again, this time with GGCTCGGCTTGCCTAC (antisense; LNA-modified, pattern not given here) [CAMSAP1-5594 LNA V1]
-- reply 0.569

-- ask Same again, this time with GGCACTTTGCCTCCTT (antisense; LNA-modified, pattern not given here) [EGFR-2859 LNA V1]
-- reply 0.774

-- ask Same again, this time with TGTGATGGCCTCCCAT (antisense; LNA-modified, pattern not given here) [HPRT LNA-334 V1]
-- reply 0.315

-- ask Same again, this time with CTTGAAGCATCGTATC (antisense; LNA-modified, pattern not given here) [CTNN2B-3648 LNA KL]
-- reply 0.363

-- ask Same again, this time with GGCTGGAATCCGAGTT (antisense; LNA-modified, pattern not given here) [EGFR-4705 LNA KL]
-- reply 0.417

-- ask Same again, this time with GACTATACGCGCAATA (antisense; LNA-modified, pattern not given here) [NC5 LNA PS 3-10-3]
-- reply 0.282

-- ask Same again, this time with GATGGCCTCCCATCTC (antisense; LNA-modified, pattern not given here) [HPRT LNA-331 V1]
-- reply 0.558
